Source of measurements: patent US20260166139A1

# Assayed Target: T1, CTLA4-mFc
# T1 construct: also called CTLA4ECD-mFc fusion protein; CTLA4 antigen
# T1 sequence (chain, as listed by the source limits assumed): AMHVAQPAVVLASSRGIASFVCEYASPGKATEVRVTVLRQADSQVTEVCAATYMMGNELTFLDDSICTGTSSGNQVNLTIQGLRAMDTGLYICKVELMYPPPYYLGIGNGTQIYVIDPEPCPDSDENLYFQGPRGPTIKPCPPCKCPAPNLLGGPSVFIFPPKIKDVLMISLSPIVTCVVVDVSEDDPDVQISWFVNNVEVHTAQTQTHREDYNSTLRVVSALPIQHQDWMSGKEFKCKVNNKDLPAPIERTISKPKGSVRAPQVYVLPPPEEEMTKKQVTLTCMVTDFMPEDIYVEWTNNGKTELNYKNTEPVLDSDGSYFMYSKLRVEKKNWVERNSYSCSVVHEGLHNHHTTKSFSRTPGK
# Measurement Protocol: competitive ELISA, competitor B7-1
Documented EC50 across a set of binders
Use nM as the unit, but write only the number.

>>> test_result("humanized antibody 8D2H2L15 (antibody, V domains shown) VH: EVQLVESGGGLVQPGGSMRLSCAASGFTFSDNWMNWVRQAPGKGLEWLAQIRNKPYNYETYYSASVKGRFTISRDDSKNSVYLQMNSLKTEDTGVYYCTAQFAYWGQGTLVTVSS VL: DIQMTQSPSSLSASVGDRVTITCRTSENIYGGLNWYQRKPGKSPKLLIYGATNLASGVSSRFSGSGSGTDYTLTISSLQPEDVATYYCQNVLSRHPGFGSGTKLEIK")
1.97

Problem: Dear colleague, I am looking for the recorded EC50 of the following binder: humanized antibody 8D2H2L17 (antibody, V domains shown) VH: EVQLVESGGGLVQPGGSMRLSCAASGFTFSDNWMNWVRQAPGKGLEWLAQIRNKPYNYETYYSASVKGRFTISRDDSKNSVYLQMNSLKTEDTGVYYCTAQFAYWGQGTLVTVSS VL: DIQMTQSPSSLSASVGDRVTITCRTSENIYGGLNWYQRKPGKSPKLLIYGATNLASGVSSRFSGSGSGTDYTLTISSLQPEDVATYYCQNVLSSRPGFGSGTKLEIK
Solution: 1.79

Problem: What would you report for humanized antibody 8D2H1L1 (antibody, V domains shown) VH: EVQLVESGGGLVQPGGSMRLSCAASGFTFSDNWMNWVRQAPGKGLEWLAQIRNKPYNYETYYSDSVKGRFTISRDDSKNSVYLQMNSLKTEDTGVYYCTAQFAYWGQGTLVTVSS VL: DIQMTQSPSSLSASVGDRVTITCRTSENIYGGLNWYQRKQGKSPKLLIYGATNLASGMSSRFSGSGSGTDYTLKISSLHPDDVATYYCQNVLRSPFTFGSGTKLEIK ?
Solution: 2.48

Problem: What would you report for 8D2 recombinant antibody, 8D2(Re) (antibody, V domains shown) VH: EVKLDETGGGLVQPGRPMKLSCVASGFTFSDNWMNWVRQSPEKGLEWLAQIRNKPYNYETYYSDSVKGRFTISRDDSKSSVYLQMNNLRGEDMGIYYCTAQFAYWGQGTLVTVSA VL: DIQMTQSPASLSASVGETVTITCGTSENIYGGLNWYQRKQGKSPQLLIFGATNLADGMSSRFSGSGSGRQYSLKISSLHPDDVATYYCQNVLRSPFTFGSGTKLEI ?
Solution: 0.514

Problem: What would you report for monoclonal antibody 8D2 (antibody, V domains shown, Mouse antibody purified from hybridoma supernatant; also called mAb 8D2; antibody secreted by the CTLA4-8D2 hybridoma cell line LT001) VH: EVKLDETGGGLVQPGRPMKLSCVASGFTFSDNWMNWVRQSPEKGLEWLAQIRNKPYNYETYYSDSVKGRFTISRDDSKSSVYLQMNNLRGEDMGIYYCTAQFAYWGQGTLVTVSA VL: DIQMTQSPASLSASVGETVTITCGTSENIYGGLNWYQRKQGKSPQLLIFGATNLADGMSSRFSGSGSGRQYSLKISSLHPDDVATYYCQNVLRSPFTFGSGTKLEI ?
Solution: 0.44

Problem: What would you report for humanized antibody 8D2H3L3 (antibody, V domains shown) VH: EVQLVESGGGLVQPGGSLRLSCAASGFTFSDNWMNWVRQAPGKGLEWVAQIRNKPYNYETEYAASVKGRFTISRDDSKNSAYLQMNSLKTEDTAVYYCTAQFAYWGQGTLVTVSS VL: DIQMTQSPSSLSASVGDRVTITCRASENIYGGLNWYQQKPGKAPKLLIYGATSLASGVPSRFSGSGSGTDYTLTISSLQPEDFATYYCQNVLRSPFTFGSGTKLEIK ?
Solution: 2.14
